- Test system: Setaria faberi (SETFA)
- EXPERIMENTAL PROTOCOL: Test 1 glasshouse assay, post-emergence herbicidal activity
- Assay type: in vivo
- SETUP CONDITIONS: 312 h, post-emergence (Example 1B Table 1), 30 g/ha, after 13 days, read-out: Percentage phytotoxicity SETFA
MEASURED METRIC: pest or weed control at 30 g/ha (%)
The response must be a number in % with no trailing unit.

Lookup: For the compound shown here, C#CCC1CC(=O)C(c2c(F)cc(-c3ccc(F)c(F)c3)cc2OC)C1=O (stereo not drawn) , give the reported pest or weed control at 30 g/ha.
Found: 90

Lookup: Then this compound: C#CCC1CC(=O)C(c2cc(-c3ncc(Cl)cc3F)ccc2C)C1=O (stereo not drawn)
Found: 60

Lookup: Then this compound: C#CCC1CC(=O)C(c2c(Cl)cc(-c3ccc(Cl)cc3)cc2OC)C1=O (stereo not drawn)
Found: 100

Lookup: Then this compound: C#CCC1CC(=O)C(c2c(Cl)cc(-c3ccc(Cl)cn3)cc2OC)C1=O (stereo not drawn)
Found: 100

Lookup: Then this compound: C#CCC1CC(=O)C(c2c(Cl)cc(-c3ccc(F)cc3F)cc2OC)C1=O (stereo not drawn)
Found: 100

Lookup: Then this compound: C#CCC1CC(=O)C(c2cc(-c3ccc(Cl)cc3)ccc2C)C1=O (stereo not drawn)
Found: 80

Lookup: Then this compound: C#CCC1CC(=O)C(c2c(F)cc(-c3ccc(F)cc3F)cc2OC)C1=O (stereo not drawn)
Found: 80

Lookup: Then this compound: C#CCC1CC(=O)C(c2c(F)cc(-c3ccc(F)cc3)cc2OC)C1=O (stereo not drawn)
Found: 80

Lookup: Then this compound: C#CCC1CC(=O)C(c2c(F)cc(-c3ccc(Cl)cc3)cc2Cl)C1=O (stereo not drawn)
Found: 100
